# EXPERIMENT SUMMARY: GDH-TPI coupling enzyme inhibitors, primary screen, artefact control for M. tuberculosis FBA inhibitor project, biochemical, absorbance, full deck (AID 588335);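 further: 0% = DMSO wells and 100% = wells lacking the enzyme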
# MEASUREMENT PARAMETERS: GDH-TPI coupled enzyme counterscreen, NADH absorbance; at 4.8 µM; stronger effect = higher value
The campaign covered roughly 360,000 compounds. About 4,500 (1.2%) were called active. What follows is part of a selection rich in actives, with near analogues and random picks from the rest.
Recorded inhibition by entry
State just the number; it will be interpreted in %.

Worked set:
compound=Cc1ccc(Cl)cc1NC(=S)N(CCN(C)C)Cc1cccs1 parameter=inhibition meas_value=-1.86
compound=CCCCc1cc(=O)oc2cc(C)cc(OCc3nn[nH]n3)c12 parameter=inhibition meas_value=22
compound=Cc1ccc(S(=O)(=O)NCc2cn3ccsc3n2)c(C)c1 parameter=inhibition meas_value=7.83

Query: So what's the measured inhibition for this one? `CCCCNC(=O)N1CCN(S(C)(=O)=O)CC1`
Response: -0.96

Query: One more compound: NC(=O)CC(NC(=O)Cc1ccc(Br)cc1)c1ccc(NC2CC3CCC2C3)c([N+](=O)[O-])c1 (stereo unspecified)
Response: -1.99

Query: Another compound to look at: `Cc1cc(/C=N/n2cnnc2)c(C)n1-c1ccc2ncccc2c1`
Response: 15

====

# EXPERIMENT SUMMARY: GDH-TPI coupling enzyme inhibitors, primary screen, artefact control for M. tuberculosis FBA inhibitor project, biochemical, absorbance, full deck (AID 588335);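 further: 0% = DMSO wells and 100% = wells lacking the enzyme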
# MEASUREMENT PARAMETERS: GDH-TPI coupled enzyme counterscreen, NADH absorbance; at 4.8 µM
Hit rate of the full screen: of about 360,000 compounds, about 4,500 (1.2%) were called active. No stated cut-off is given here; in the data, active means inhibition above about 30%; inactive means the rest. The list comes from a sample in which actives are over-represented; it also holds close analogues and randomly drawn compounds.
Form entry, call: pick from Yes for active, No for inactive

compound=O=C(CC(=O)c1cccnc1)c1ccccc1 label=Yes

Query: Identify the outcome logged in this assay for the compound shown: CC(=O)c1ccc(N2CCN(C(=O)C3CCN(S(=O)(=O)c4ccc5c(c4)CC(C)N5C(=O)C4CC4)CC3)CC2)cc1 (stereo not drawn)
Response: No

Query: # repeat for COc1ccc(-c2ccc(OC(=O)NC3CCS(=O)(=O)C3)cc2)cc1 (stereo not drawn)
Response: No

Query: Entry `Cc1ccc(-c2nc3ccccc3[nH]c2=O)cc1` please
Response: Yes

Query: Proceed to CCOC(=O)C(C)n1cnc2c(nnn2-c2cccc(OC)c2)c1=O (stereo not drawn)
Response: No

Query: Same lookup for `Cc1ccc(OCC(=O)NCCCNC(=O)c2cccnc2)cc1C` , please.
Response: No

Query: Next up: `O=C(Nc1ccccc1F)c1cc(S(=O)(=O)N2CCCCC2)cs1`
Response: No

Query: // query: `O=C(CN1C(=O)/C(=C/c2ccccc2F)Sc2ccccc21)NCc1cccnc1`
Response: No

Query: Entry `COCCOC(=O)c1sc(=S)n(CCOC)c1N` please
Response: No

Query: And the next one, `CCOc1ccc(NC(=O)CSc2nc3ccccc3c(=O)n2Cc2cccs2)cc1` ?
Response: No

Query: Another compound to look at: `O=C(NCc1ccccc1Cl)C1CCN(c2ncnc3c2nc2n3CCCCC2)CC1`
Response: No

Query: Consider next the compound `COc1cc(OC)c(NS(=O)(=O)c2cn(C)cn2)cc1Cl` in the same way.
Response: No

Query: Further, for O=C1N(Cc2ccc3c(c2)OCO3)c2ccccc2C1(O)c1c[nH]c2ccccc12 (stereo not drawn) ?
Response: No

====

Recorded inhibition by entry
# EXPERIMENT SUMMARY: GDH-TPI coupling enzyme inhibitors, primary screen, artefact control for M. tuberculosis FBA inhibitor project, biochemical, absorbance, full deck (AID 588335);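 further: 0% = DMSO wells and 100% = wells lacking the enzyme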
# MEASUREMENT PARAMETERS: GDH-TPI coupled enzyme counterscreen, NADH absorbance; at 4.8 µM; stronger effect = higher value
Screen size: about 360,000 compounds; about 4,500 (1.2%) were called active. This is one part of a sample in which actives are shown more often than they occur.
Kindly provide the numeric value in % only, without the unit symbol.

compound="CC1(c2ccc(Cl)cc2Cl)NC(=O)N(CC(=O)Nc2cccnc2Cl)C1=O (stereo unspecified)" meas_value=0
compound="CC1(C)CC(N(Cc2ccccc2)C(=O)Cc2ccccc2)CCO1 (stereo unspecified)" meas_value=-7.26
compound=Cc1[nH]n(C)c(=O)c1N=Nc1ccc(S(C)(=O)=O)cc1 meas_value=33.3

Query: Any idea what inhibition was measured for Cc1cn(C2CC(O)C(CO)O2)c(=O)n(CCCc2ccccc2)c1=O (stereo unspecified) ?
Response: -7.8

Query: Can you handle `Cc1c(N=Nc2ccc(N(C)C)cc2)c(=O)n(-c2ccccc2)n1C` next?
Response: 7.74

Query: Next record, please: `COc1cc(/C=N/NC(=S)Nc2cccnc2)cc(OC)c1O`
Response: 31.5

====

# EXPERIMENT SUMMARY: GDH-TPI coupling enzyme inhibitors, primary screen, artefact control for M. tuberculosis FBA inhibitor project, biochemical, absorbance, full deck (AID 588335);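 further: 0% = DMSO wells and 100% = wells lacking the enzyme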
# MEASUREMENT PARAMETERS: GDH-TPI coupled enzyme counterscreen, NADH absorbance; at 4.8 µM
About 4,500 (1.2%) of roughly 360,000 compounds were called active. Rule as the data show it: active = inhibition above about 30%; inactive = the rest. This excerpt belongs to a sample that is enriched for actives.
Log the outcome using a class from TRUE for active, FALSE for inactive

Here are 3 compounds together with their reported answers.
compound=COc1ccc(OC)c(-n2cc3c(=O)n(C)c(=O)n(C)c3c2)c1 label=FALSE
compound=CCn1c(NC(=O)c2ccccc2)c(-c2cccs2)c(=O)c2ccccc21 label=TRUE
compound=COc1ccc(/C=C/C(=O)c2cc(Br)ccc(=O)c2O)cc1 label=TRUE

Query: What classification did `COC(=O)c1cnn2c(C(F)(F)F)cc(-c3ccco3)nc12` end up with in this test?
Response: FALSE

Query: And for `O=C(Nc1ccc(Br)c2cccnc12)c1ccc(Cn2cc([N+](=O)[O-])cn2)o1` ?
Response: FALSE

Query: Same read-out for `CCOc1ccc(/C=C(/NC(=O)c2ccccc2)C(=O)NCCC(=O)O)cc1` ?
Response: FALSE

Query: Record: `O=C(O)/C=C\C(=O)Nc1ccc(OCc2ccccc2)cc1`
Response: FALSE

Query: Subsequent entry: `Cc1ccc(NC(=O)C2CCN(S(=O)(=O)c3ccc4c(c3)NC(=O)CO4)CC2)cc1C`
Response: FALSE

Query: What do you have for `Cc1ccc(NN=Nc2nc3c([nH]2)c(=O)n(C)c(=O)n3C)cc1` ?
Response: FALSE

Query: What do you have for `COc1ccc2c(c1)CCc1cn3ncc(C#N)c3nc1-2` ?
Response: FALSE

====

# EXPERIMENT SUMMARY: GDH-TPI coupling enzyme inhibitors, primary screen, artefact control for M. tuberculosis FBA inhibitor project, biochemical, absorbance, full deck (AID 588335);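 further: 0% = DMSO wells and 100% = wells lacking the enzyme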
# MEASUREMENT PARAMETERS: GDH-TPI coupled enzyme counterscreen, NADH absorbance; at 4.8 µM; stronger effect = higher value
Among all 360,000 compounds or so, about 4,500 (1.2%) were called active. The entries come from a sample that favours actives as a whole.
PARAMETER: inhibition (%)
Quick note: give the figure in %, leave out the unit.

compound=O=C(O)c1ccc(COCC(F)(F)F)cc1 parameter=inhibition unit_label=% meas_value=6.06
compound=CCn1c(Cc2ccc(OC)cc2)nnc1SCC(=O)Nc1ccc(N2CCOCC2)cc1 parameter=inhibition unit_label=% meas_value=-0.78
compound=Cc1ccc(N=C2NC(=O)c3cccc([N+](=O)[O-])c32)cc1 parameter=inhibition unit_label=% meas_value=13.5
compound=CC(C)(C)c1csc(NC2=NS(=O)(=O)c3ccccc32)n1 parameter=inhibition unit_label=% meas_value=36.1
compound="O=C(CN1C(=O)S/C(=C\\c2ccccc2Cl)C1=O)NC1C=CS(=O)(=O)C1 (stereo not drawn)" parameter=inhibition unit_label=% meas_value=35.4

Query: I'd like to know its inhibition. The compound in question is `CCC(=O)c1ccc(OC(=O)/C=C/c2cc(OC)c(OC)c(OC)c2)cc1`
Response: 14.9

Query: Also, `O=C(COC(=O)COc1cc(Cl)c(Cl)cc1Cl)NC1CC1` please.
Response: 7.02

====

Listed below: inhibition values for each entry.
# EXPERIMENT SUMMARY: GDH-TPI coupling enzyme inhibitors, primary screen, artefact control for M. tuberculosis FBA inhibitor project, biochemical, absorbance, full deck (AID 588335);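 further: 0% = DMSO wells and 100% = wells lacking the enzyme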
# MEASUREMENT PARAMETERS: GDH-TPI coupled enzyme counterscreen, NADH absorbance; at 4.8 µM; stronger effect = higher value
About 4,500 (1.2%) of roughly 360,000 compounds were called active. The sample as a whole holds a higher share of actives than the screen did.
Report the figure in % without appending any unit label.

compound=COc1ccc(SC[C@H](Cc2ccccc2)N2CCN(CCc3ccccc3)CCC2=O)cc1 meas_value=3.36
compound=O=C(Cc1ccccc1)Nc1cccc(C(=O)N/N=C/c2ccco2)c1 meas_value=12.2
compound="C=CCOC(=O)C1=C(C)N=C2SCCC(=O)N2C1/C=C/c1ccccc1OC (stereo not given)" meas_value=6.07
compound=O=C(Oc1cccc(NC2=NS(=O)(=O)c3ccccc32)c1)c1ccncc1 meas_value=0.95
compound=COc1ccccc1-n1c(O)c(C=NC2CC2)c(=O)[nH]c1=O meas_value=-4.18
compound=Cc1ccc(S(=O)(=O)N(NC2=NS(=O)(=O)c3ccccc32)C(=O)c2ccccc2)cc1 meas_value=4.78

Query: Could you share which inhibition value was measured for `Cc1csc(Nc2ccc(Cl)cc2)[n+]1-c1ccc(Cl)cc1` ?
Response: 2.24

Query: Now give it for CCC(C)[C@H](NC(=O)N1c2ccccc2NC(=O)[C@@H]1C(C)C)C(=O)N[C@@H](Cc1ccccc1)C(=O)O (stereo not given in full) too.
Response: 10.8

Query: Now try `CNC(=S)N/N=C/c1cn(Cc2ccc(C)cc2)c2ccccc12` .
Response: 37

Query: # repeat for `COc1cccc(/C=C/c2ccc3ccccc3n2)c1OC(C)=O`
Response: 22.8
